For each record, write down the corresponding HPLC Purity (area %).
Experiment: Solid state stability (XRPD and HPLC)
Type: physicochemical
Settings: Starting
Procedure: In the test, the purity, dynamic solubility and stability were tested using an Agilent 1260 high-performance liquid chromatograph, the molar ratio of salt-forming ions was tested using ion chromatography, and the analytical conditions are shown in Tables A-4 and A-5 below. [table]
Where a name gives a salt, the structure may show the parent alone.
Record the value in area %, omitting the unit from your answer.

Exercise: Bench note: what HPLC Purity (area %) did Cc1cnc(-c2cc(O[C@@H](C)[C@@H](C)O)cc(C(=O)N[C@H](C)c3cnc(C(F)(F)F)nc3)c2F)s1 [Crystalline form A of maleate] show?
Key: 99.71

Exercise: Dear colleague, I am looking for the recorded HPLC Purity (area %) of the following molecule: Cc1cnc(-c2cc(O[C@@H](C)[C@@H](C)O)cc(C(=O)N[C@H](C)c3cnc(C(F)(F)F)nc3)c2F)s1 [Free base crystalline form A]
Key: 99.37

Exercise: Need HPLC Purity (area %) of Cc1cnc(-c2cc(O[C@@H](C)[C@@H](C)O)cc(C(=O)N[C@H](C)c3cnc(C(F)(F)F)nc3)c2F)s1 [Crystalline form A of hydrochloride] , thanks.
Key: 99.59

Exercise: What measured HPLC Purity (area %) goes with Cc1cnc(-c2cc(O[C@@H](C)[C@@H](C)O)cc(C(=O)N[C@H](C)c3cnc(C(F)(F)F)nc3)c2F)s1 [Crystalline form A of p-toluenesulfonate] ?
Key: 99.92

----------
Test: Dynamic solubility experiment at 37° C.
Assay type: physicochemical
Details: SGF, 4 h
Where a name gives a salt, the structure may show the parent alone.

{"MOLECULE": "Cc1cnc(-c2cc(O[C@@H](C)[C@@H](C)O)cc(C(=O)N[C@H](C)c3cnc(C(F)(F)F)nc3)c2F)s1 [Free base crystalline form A]", "Crystalline form change": "No"}
{"MOLECULE": "Cc1cnc(-c2cc(O[C@@H](C)[C@@H](C)O)cc(C(=O)N[C@H](C)c3cnc(C(F)(F)F)nc3)c2F)s1 [Crystalline form A of maleate]", "Crystalline form change": "Yes^a"}
{"MOLECULE": "Cc1cnc(-c2cc(O[C@@H](C)[C@@H](C)O)cc(C(=O)N[C@H](C)c3cnc(C(F)(F)F)nc3)c2F)s1 [Crystalline form A of hydrochloride]", "Crystalline form change": "Yes^a"}

----------
Test: Dynamic solubility experiment at 37° C.
Type: physicochemical
Conditions: FeSSIF, 1 h
Structures can show the parent of a compound that is named as a salt.
MEASUREMENT TYPE: pH of filtrate
Output spec: single numeric token, no unit.

Exercise: Find the recorded pH of filtrate belonging to Cc1cnc(-c2cc(O[C@@H](C)[C@@H](C)O)cc(C(=O)N[C@H](C)c3cnc(C(F)(F)F)nc3)c2F)s1 [Crystalline form A of p-toluenesulfonate] and report it.
Key: 4.8

Exercise: Look up pH of filtrate for this molecule: Cc1cnc(-c2cc(O[C@@H](C)[C@@H](C)O)cc(C(=O)N[C@H](C)c3cnc(C(F)(F)F)nc3)c2F)s1 [Free base crystalline form A]
Key: 5.0

Exercise: Given Cc1cnc(-c2cc(O[C@@H](C)[C@@H](C)O)cc(C(=O)N[C@H](C)c3cnc(C(F)(F)F)nc3)c2F)s1 [Crystalline form A of maleate] , state its recorded pH of filtrate.
Key: 4.9

Exercise: Dear colleague, I am looking for the recorded pH of filtrate of the following molecule: Cc1cnc(-c2cc(O[C@@H](C)[C@@H](C)O)cc(C(=O)N[C@H](C)c3cnc(C(F)(F)F)nc3)c2F)s1 [Crystalline form A of hydrochloride]
Key: 4.9
